- Target or test system: acetylcholine receptor
- Experimental details: SPR, peptide at 10 uM on immobilized AchR
Property: Binding affinity (RU)

These recorded examples may help you get a feel for the data.
Binder	Property	Numeric readout
KYSWRK [6mer-2-1073]	Binding affinity (RU)	24
KTTDKK [6mer-2-1093]	Binding affinity (RU)	43
KHDKKR [6mer-2-1020]	Binding affinity (RU)	21

[A] RHDDKR [6mer-2-1047]
[B] KEEFKK [6mer-2-1029]
Input pair: A , B . Output: entry with lower Binding affinity (RU). Give the label of your selection.
A
(A: 28 RU, B: 40 RU)

[a] RAWERK [6mer-2-1031]
[b] KPPDKR [6mer-2-1013]
Please indicate which item has the smaller measured Binding affinity (RU): a versus b Indicate your choice by writing its label.
b

[1] RKHMRR [6mer-2-1051]
[2] RDTHKR [6mer-2-1004]
Hi! Which is lower in terms of Binding affinity (RU), the first one 1 or the second one 2 ? Give the label of your selection.
1
